# ASSAYED TARGET: T1, biotinylated recombinant cynomolgus monkey trimeric ARG2 enzyme (Avi-cynoARG2-His10) (cynomolgus monkey, UniProt P78540 23-354 (human entry), biotinylated)
# T1 construct: also called cynomolgus ARG2
# T1 chain: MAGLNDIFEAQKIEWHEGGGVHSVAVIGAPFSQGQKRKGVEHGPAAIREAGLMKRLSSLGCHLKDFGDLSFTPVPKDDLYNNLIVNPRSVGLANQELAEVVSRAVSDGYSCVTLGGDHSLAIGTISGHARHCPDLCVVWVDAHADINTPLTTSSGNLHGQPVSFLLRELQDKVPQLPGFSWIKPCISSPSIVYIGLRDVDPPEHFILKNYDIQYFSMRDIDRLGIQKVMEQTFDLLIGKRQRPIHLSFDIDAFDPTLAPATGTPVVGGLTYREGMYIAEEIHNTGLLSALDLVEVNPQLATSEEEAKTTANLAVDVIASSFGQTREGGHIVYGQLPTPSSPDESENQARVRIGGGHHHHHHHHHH
# RUN DESCRIPTION: BLI (OctetRED), biotinylated cyno ARG2 on streptavidin, Fab as analyte

BINDER: C0021092 Fab (Fab, V domains shown, Human Fab) VH: EVQLLESGGGLVQPGGSLRLSCAASGFTFSRYAMSWVRQAPGKGLEWVSAHTHSPGSTYYADSVKGRFTISRDNSKNTLYLQMNSLRAEDTAVYYCARLRADLGLYMDLWGRGTLVTVSS VL: QSVLTQPPSVSAAPGQKVTISCSGSSSNIGNHYVSWYQQLPGTAPKLLIYNSVARPSGIPDRFSGSKSGTSATLGITGLQTGDEADYYCGTWDSSLSALVFGGGTKLTVL
Kd / nM: 2.05

Provenance of the data: patent US20220403048A1
